Below: a set of entries, each annotated with reported AC50.
Biological target: PKR T384W (Homo sapiens)
Sequence (P30613 whole entry T384M): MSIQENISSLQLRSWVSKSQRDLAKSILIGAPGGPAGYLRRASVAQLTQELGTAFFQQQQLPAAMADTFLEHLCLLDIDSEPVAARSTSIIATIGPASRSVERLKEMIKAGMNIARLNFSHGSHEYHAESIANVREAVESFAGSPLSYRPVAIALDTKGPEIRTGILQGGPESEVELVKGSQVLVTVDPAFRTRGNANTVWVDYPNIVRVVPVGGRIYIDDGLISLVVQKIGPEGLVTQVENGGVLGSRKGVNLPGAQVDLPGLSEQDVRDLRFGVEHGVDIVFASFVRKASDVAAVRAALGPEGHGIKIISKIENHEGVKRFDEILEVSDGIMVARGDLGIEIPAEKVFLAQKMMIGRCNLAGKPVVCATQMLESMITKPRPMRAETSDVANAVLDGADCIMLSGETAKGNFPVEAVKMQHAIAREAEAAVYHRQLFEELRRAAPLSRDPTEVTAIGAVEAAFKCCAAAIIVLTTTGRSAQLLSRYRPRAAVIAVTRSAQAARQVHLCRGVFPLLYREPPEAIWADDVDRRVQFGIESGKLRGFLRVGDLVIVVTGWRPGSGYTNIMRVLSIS
Assay: PKR Mutant Assay, AC50 (T384W)
Type: biochemical

O=C(NC1CN(C(=O)c2ccc(NS(=O)(=O)c3cccc4cccnc34)cc2)C1)c1ccccn1 [drawing 81]    > 0.5 µM
O=C(c1ccc(NS(=O)(=O)c2cccc3cccnc23)cc1)N1CC(O)(c2ccccc2)C1 [drawing 106]    0.101 to 0.5 µM
O=C(c1ccc(NS(=O)(=O)c2cccc3cccnc23)cc1)N1CC(Oc2ccccc2)C1 [drawing 70]    0.101 to 0.5 µM
COc1ccccc1OC1CN(C(=O)c2ccc(NS(=O)(=O)c3cccc4cccnc34)c(C)c2)C1 [drawing 129]    < 0.1 µM

As a next step, examine the molecule that follows.
Enquiry: Which value of AC50 has been reported for Cc1cc(C(=O)N2CC(Oc3ccccc3)C2)ccc1NS(=O)(=O)c1cccc2cccnc12 [drawing 76] in the records?
Return: < 0.1 µM

====

Molecular target: PKR wt (Homo sapiens)
Sequence (P30613 whole entry): as the sequence (P30613 whole entry T384M) above, with M384T counted along it
Assay: PKR WT Single Point Percent Activation Assay
Format: biochemical
Details: compound at 1 μM
MEASUREMENT_NAME: activation at 1 µM

COc1cc(NS(=O)(=O)c2cccc3cccnc23)ccc1C(=O)N1CC(OC(=O)NC(C)C)C1    101 to 500%
COC1(Cc2ccccc2)CN(C(=O)c2ccc(NS(=O)(=O)c3cccc4cccnc34)cc2)C1    101 to 500%
COc1ccccc1OC1CN(C(=O)c2ccc(NS(=O)(=O)c3cccc4cccnc34)c(F)c2)C1    101 to 500%
CN(c1ccccc1)C1CN(C(=O)c2ccc(NS(=O)(=O)c3cccc4cccnc34)cc2)C1    101 to 500%
O=C(c1ccc(NS(=O)(=O)c2cccc3cccnc23)cc1)N1CC(NCc2ccccc2)C1    101 to 500%
COc1ccccc1OC1CN(C(=O)c2ccc(NS(=O)(=O)c3cccc4cccnc34)cc2)C1    101 to 500%

Enquiry: Bench note: what activation at 1 µM did Cc1cc(C(=O)N2CC(Oc3ccccc3)C2)ccc1NS(=O)(=O)c1cccc2cccnc12 [drawing 10] show?
Return: 1 to 100%

Enquiry: I'd like to know its activation at 1 µM. The compound in question is Cc1cc(C(=O)N2CC(OC(=O)Nc3ccccn3)C2)ccc1NS(=O)(=O)c1cccc2cccnc12
Return: 1 to 100%

Enquiry: What does the data say about its activation at 1 µM? Entry: O=C(Nc1ccccn1)NC1CN(C(=O)c2ccc(NS(=O)(=O)c3cccc4cccnc34)cc2)C1
Return: 101 to 500%

Enquiry: For the compound shown here, O=C(OC1CN(C(=O)c2ccc(NS(=O)(=O)c3cccc4cccnc34)cc2)C1)c1ccccn1 , give the reported activation at 1 µM.
Return: 101 to 500%

====

Target: PKR R510Q (Homo sapiens, UniProt P30613, R510Q)
Sequence (P30613 whole entry R510Q): as the sequence (P30613 whole entry T384M) above, with M384T, R510Q counted along it
Test: PKR R510Q Single Point Percent Activation Assay
Type: biochemical
Conditions: compound at 1 μM; read-out: % Act. R510Q
MEASUREMENT_NAME: activation at 1 µM

Past entries and their recorded results:
CC(C)NC(=O)OC1CN(C(=O)c2ccc(NS(=O)(=O)c3cccc4cccnc34)cc2)C1    101 to 500%
COc1ccccc1NC1CN(C(=O)c2ccc(S(=O)(=O)Nc3cccc4cccnc34)cc2)C1    101 to 500%
COc1cc(NS(=O)(=O)c2cccc3cccnc23)ccc1C(=O)N1CC(C)(O)C1    101 to 500%
Cc1cc(C(=O)N2CC(NC(=O)c3ccccn3)C2)ccc1NS(=O)(=O)c1cccc2cccnc12 [drawing 7]    101 to 500%
CN(c1ccccc1)C1CN(C(=O)c2ccc(NS(=O)(=O)c3cccc4cccnc34)cc2)C1    101 to 500%

Enquiry: State the recorded activation at 1 µM for this entry: COc1cc(C(=O)N2CC(OC(=O)Nc3ccccn3)C2)ccc1NS(=O)(=O)c1cccc2cccnc12
Return: 101 to 500%

Enquiry: Recorded activation at 1 µM of Cc1cc(C(=O)N2CC(OC(=O)NC(C)C)C2)ccc1NS(=O)(=O)c1cccc2cccnc12 , please.
Return: 101 to 500%

Enquiry: Requested read-out: activation at 1 µM. Entry: COc1ccccc1OC1CN(C(=O)c2ccc(NS(=O)(=O)c3cccc4cccnc34)c(C)c2)C1 [drawing 63]
Return: 101 to 500%
